system: BJ; assay: Cytotoxicity against human BJ cells; type: cell-based
measured-parameter: EC50

So what's the measured EC50 for this one? Oc1cccc(C2NCCc3c2[nH]c2ccc(Cl)cc32)c1 (configuration not stated)
> 24 µM

So what's the measured EC50 for this one? CCn1c2c(c3cc(Cl)ccc31)CCNC2C (configuration not stated)
> 24 µM

So what's the measured EC50 for this one? Cc1cccc(C2NCCc3c2[nH]c2ccc(Cl)cc32)c1 (configuration not stated)
> 24 µM

So what's the measured EC50 for this one? Oc1ccccc1C1NCCc2c1[nH]c1ccc(Cl)cc21 (configuration not stated)
15.7 µM

So what's the measured EC50 for this one? Clc1ccc2[nH]c3c(c2c1)CCNC3c1ccccc1Cl (configuration not stated)
> 24 µM

So what's the measured EC50 for this one? Clc1cccc(C2NCCc3c2[nH]c2ccc(Cl)cc32)c1 (configuration not stated)
23.6 µM

So what's the measured EC50 for this one? Clc1ccc2[nH]c3c(c2c1)CCNC3c1ccccc1 (configuration not stated)
> 24 µM

So what's the measured EC50 for this one? Oc1ccc(C2NCCc3c2[nH]c2ccc(Cl)cc32)cc1 (configuration not stated)
> 24 µM

So what's the measured EC50 for this one? Clc1ccc2[nH]c3c(c2c1)CCNC3c1ccc2ccccc2c1 (configuration not stated)
17.2 µM

So what's the measured EC50 for this one? Clc1ccc2[nH]c3c(c2c1)CCNC3c1cccc2ccccc12 (configuration not stated)
> 24 µM

So what's the measured EC50 for this one? Clc1ccc2[nH]c3c(c2c1)CCNC3C1CCCCC1 (configuration not stated)
> 24 µM

So what's the measured EC50 for this one? Clc1ccc(C2NCCc3c2[nH]c2ccc(Cl)cc32)cc1 (configuration not stated)
23 µM

====

Give selectivity ratio for every item shown.
experiment: Therapeutic index, ratio of EC50 for cytotoxicity against human BJ cells to EC50 for antimalarial activity against Plasmodium falciparum 3D7; format: toxicity, cell-based; conditions: read-out: Ratio EC50

So what's the measured selectivity ratio for this one? Clc1ccc2[nH]c3c(c2c1)CCNC3Cc1ccccc1 (stereo not drawn)
2

So what's the measured selectivity ratio for this one? Clc1ccc(C2NCCc3c2[nH]c2ccc(Cl)cc32)cc1 (stereo not drawn)
2

So what's the measured selectivity ratio for this one? Clc1ccc2[nH]c3c(c2c1)CCNC3C1CCCCC1 (stereo not drawn)
2
